Test: Kinetics of oxidation of the dihydro derivatives in whole blood
Type: in vitro ADME, human
Conditions: human, 37°C
property: half-life (h)

• CCOC(=O)C1=CN(C)C=C(C(=O)NCCc2ccccc2)C1 = 1.7

---

Test: Enzymatic hydrolytic cleavage and rate of oxidation of compound 5c in human plasma (HPLC)
Assay type: in vitro ADME
Settings: 80% plasma, 37°C, pseudo first order, read-out: apparent half-lives for the disappearance
property: half-life at 3050 µM (min)

• CN1C=CCC(C(=O)NCCc2ccc(OC(=O)C(C)(C)C)c(OC(=O)C(C)(C)C)c2)=C1 = 51

---

Experiment: Enzymatic hydrolytic cleavage and rate of oxidation of compound 5c in rat brain homogenate (HPLC)
Format: in vitro ADME, Sprague-Dawley rats
Conditions: rat, pH 7.4; 20% brain homogenate, 37°C, pseudo first order; read-out: apparent half-lives for the disappearance
property: half-life at 1800 µM (min)

• CN1C=CCC(C(=O)NCCc2ccc(OC(=O)C(C)(C)C)c(OC(=O)C(C)(C)C)c2)=C1 [5c] = 17
